Experiment: NCI Yeast Anticancer Drug Screen. Data for the rad50 strain (AID 155);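 further: 0% = growth of vehicle-only cultures of the same strain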
Conditions: S. cerevisiae rad50 strain growth inhibition; at 50.0 µM (retest, dose inferred, filed as 5.0); hits give high values
About 79,000 compounds went through this panel and 15% of them were active in at least one assay; those are over-represented in the sample as a whole.
READOUT_NAME: growth inhibition (%)
Quick reminder: number only, in %, skip the unit.

Answered examples (10):
# COMPOUND, READOUT_NAME, READOUT_UNIT, MEASUREMENT
records = [
    ("CO/N=C/c1cc(NC(=S)c2ccoc2C)ccc1Cl", "growth inhibition", "%", 0),
    ("CCCCN(CCCC)CCC(=O)c1ccc2c(ccc3ccccc32)c1", "growth inhibition", "%", 99),
    ("Cc1ccc(-n2cc(-c3ccc(Cl)cc3)c3c(NN)ncnc32)cc1", "growth inhibition", "%", 30),
    ("COC([C@@H](OC(=O)c1ccccc1)[C@H](OC(=O)c1ccccc1)C(O)COC(=O)c1ccccc1)n1cc(C)c(=O)[nH]c1=O (stereo not given in full)", "growth inhibition", "%", 26),
    ("C=C1C(=O)OC(CCCCCCCCCCCCC)C1C(=O)O (stereo not given)", "growth inhibition", "%", 89),
    ("CCOc1c(N=Nc2ccccc2OC)c(-c2ccccc2)nn1C(N)=S", "growth inhibition", "%", 38),
    ("O=C(NC(OCc1ccccc1)(C(F)(F)F)C(F)(F)F)OCc1ccccc1", "growth inhibition", "%", 98),
    ("O=C(NCCCCC(NC(=O)OCc1ccccc1)C(=O)Nc1ccc(Nc2ccc(NC(=O)C(CCCCNC(=O)OCc3ccccc3)NC(=O)OCc3ccccc3)cc2)cc1)OCc1ccccc1 (stereo not given)", "growth inhibition", "%", -12),
    ("O=C1/C(=C/c2ccc(Cl)cc2)CSC/C1=C\\c1ccc(Cl)cc1", "growth inhibition", "%", 37),
    ("Cc1ccccc1NC(=S)N/N=C(/c1ccccc1)c1ccccn1", "growth inhibition", "%", 94),
]

[in] What growth inhibition value was documented for this compound, O=C(NC[N+]12CCO[B-]1(c1ccc(Br)cc1)OCC2)c1ccccc1O (stereo not given) ?
[out] 48

[in] What growth inhibition value was documented for this compound, CCN(CC)CCCNc1cc(C)nc2c1ccc1c2ccc2c(NCCCN(CC)CC)cc(C)nc21 ?
[out] 92

[in] What growth inhibition value was documented for this compound, CCC(C)NCCNc1cc(OC)cc2cccnc12 (stereo not given) ?
[out] 13

[in] What growth inhibition value was documented for this compound, C=C(C)C1CC2=C(O1)C(=O)c1ccccc1C2=O (stereo not given) ?
[out] 99

[in] What growth inhibition value was documented for this compound, C/C(=N/NC(N)=S)C(CN1CCOCC1)C(C1=C(O)c2ccccc2OC1)c1ccccc1 (stereo not given) ?
[out] 26

[in] What growth inhibition value was documented for this compound, CCCCCCCCCCCCOP(=O)(N1CC1(C)C)N1CC1(C)C (stereo not given) ?
[out] 61

----------
Experiment: NCI Yeast Anticancer Drug Screen. Data for the bub3 strain (AID 167)
Settings: S. cerevisiae bub3 mutant strain, at 50.0 µM (retest, dose inferred, filed as 5.0), hits give high values
Compounds without any hit were thinned out: in the full panel of roughly 79,000, 15% have a hit. Active and inactive are the calls of the source. Rule as the data show it: active = growth inhibition above about 70%; inactive = the rest.
// reported growth inhibition for each item listed

[in] What growth inhibition value was documented for this compound, CCOC(=O)C1=C(c2ccccc2)N(C)c2ccccc2S1 ?
[out] 78% (active)

[in] What growth inhibition value was documented for this compound, CCCOc1cc(C(=O)OCCN(CC)CC)cc(OCCC)c1OCCC ?
[out] 12% (inactive)

[in] What growth inhibition value was documented for this compound, CCCCCCC(/C=C/c1c(Cl)cccc1Cl)=N\O ?
[out] 53% (inactive)

----------
Assay: NCI Yeast Anticancer Drug Screen. Data for the mec2-1 strain (AID 157)
Conditions: S. cerevisiae mec2-1 strain, at 50.0 µM, hits give high values
The panel holds about 79,000 compounds, 15% with a hit somewhere; the sample as a whole holds those more often.
READOUT_NAME: growth inhibition (%)
Quick reminder: number only, in %, skip the unit.

Answered examples (5):
# COMPOUND, READOUT_UNIT, growth inhibition
records = [
    ("CCCCc1c2c(nc3c1CCCC3O)/C(=C/c1ccccc1)CCC2 (stereo not drawn)", "%", 53.9),
    ("S=C(Nc1ccc(Cl)c(Cl)c1)N1c2ccccc2-n2cccc2C1c1cccnc1 (stereo not drawn)", "%", 84.5),
    ("O=[N+]([O-])c1ccc(/C(=C\\c2ccccc2)Cn2ccnc2)cc1", "%", 77),
    ("COc1cc(C(c2cc3c(cc2O)OCO3)N2CCN(C(c3ccc(O)c(OC)c3)c3cc4c(cc3O)OCO4)CC2)ccc1O (stereo not drawn)", "%", 99.3),
    ("COC(=O)C12OCC34C(CC5C(C)C6=CC(=O)OC6=CC5(C)C3C(O)C1O)OC(=O)C(OC(C)=O)C24 (stereo not drawn)", "%", 93.4),
]

[in] What growth inhibition value was documented for this compound, CCN(CC)CCC(=O)c1ccc(Oc2ccc(C)cc2)cc1 ?
[out] 40.2

[in] What growth inhibition value was documented for this compound, NC(N)=Nc1ccc(C(=O)Oc2c(Cl)cc([N+](=O)[O-])cc2Cl)cc1 ?
[out] 30.2

[in] What growth inhibition value was documented for this compound, CCCCCN(CCCCC)CC(=O)OCC1(C)CCCC2(C)C3CCC(C(C)C)=CC3=CCC12 (stereo not drawn) ?
[out] -9.75

[in] What growth inhibition value was documented for this compound, CC(=O)N1C/C(=C\c2ccccc2)C(=O)/C(=C/c2ccccc2)C1 ?
[out] 82.7

[in] What growth inhibition value was documented for this compound, O=C(Sc1ccccc1)C1OC12CCCCC2 (stereo not drawn) ?
[out] 31.2

[in] What growth inhibition value was documented for this compound, CCOC(=O)c1[nH]cnc1/N=N/c1nc(O)c(C#N)[nH]1 ?
[out] 9.8

[in] What growth inhibition value was documented for this compound, C[n+]1c(/C=C\c2ccccc2)sc2ccccc21 ?
[out] 82.3

[in] What growth inhibition value was documented for this compound, Nc1ncc2ccccc2c1-c1ccc(NC(=O)CCCl)cc1 ?
[out] 14.8

[in] What growth inhibition value was documented for this compound, COc1cc2cc[n+]3c4ccc([N+](=O)[O-])cc4ccc3c2cc1OC ?
[out] 55.5

[in] What growth inhibition value was documented for this compound, CCCCNC(=O)OCc1c(COC(=O)NCCCC)c(-c2ccc(Cl)c(Cl)c2)n2c1CCC2 ?
[out] 7.3

[in] What growth inhibition value was documented for this compound, O=[N+]([O-])c1ccc(N2N=NC(CN3CCOCC3)C2N2CCOCC2)cc1 (stereo not drawn) ?
[out] 47.3

[in] What growth inhibition value was documented for this compound, CCCCCCCCCCCCCCCCCCOC(=O)Nc1ccc(C)c(NC(=O)OCCCCCCCCCCCCCCCCCC)c1 ?
[out] 60.9

[in] What growth inhibition value was documented for this compound, COc1ccc(-n2cc(-c3ccc(Cl)cc3)c3c(N)ncnc32)cc1 ?
[out] 94.6

[in] What growth inhibition value was documented for this compound, O=C1/C(=C\c2ccccc2)CCC/C1=C\O ?
[out] 46.5

[in] What growth inhibition value was documented for this compound, CCC(/C=C/C(C)C1CCC2C3CC=C4C/C(=N/NC(N)=O)CCC4(C)C3CCC12C)C(C)C (stereo not drawn) ?
[out] 9.3

[in] What growth inhibition value was documented for this compound, CCC(CC)=NNc1ccc([N+](=O)[O-])cc1 ?
[out] 97.7

[in] What growth inhibition value was documented for this compound, CCCCCCCCCC1OCC(O)CO1 (stereo not drawn) (tested in a mixture with another compound) ?
[out] 96.1

[in] What growth inhibition value was documented for this compound, C1=Cc2ccccc2/C1=C/c1ccccc1 ?
[out] 60.6

[in] What growth inhibition value was documented for this compound, Nc1ccc(C(=O)N/C(=C\C=C\c2ccco2)c2nc3c4c(ccc3[nH]2)C(=O)c2ccccc2C4=O)cc1 ?
[out] 62.1

[in] What growth inhibition value was documented for this compound, O=Cc1c(Cn2ccnc2)c2cc([N+](=O)[O-])ccc2n1Cc1ccccc1 ?
[out] 13.7

----------
Assay: NCI Yeast Anticancer Drug Screen. Data for the bub3 strain (AID 167)
Settings: S. cerevisiae bub3 mutant strain, at 50.0 µM, hits give high values
Compounds without any hit were thinned out: in the full panel of roughly 79,000, 15% have a hit.
The recorded growth inhibition of each item maps onto one of these classes: band A = under 30%, band B = from 30% up to 90%, band C = 90% and over

# MOLECULE, GROUP
measured = [
    ("O=C(O/N=C(/Cc1ccccc1)c1ccccc1)c1ccccc1", "band A"),
]

[in] State the class of the molecule shown: c1ccc([B-](c2ccccc2)(c2ccccc2)c2ccccc2)cc1
[out] band C

[in] State the class of the molecule shown: O=[N+]([O-])c1c(I)ccc2ccccc12
[out] band A

[in] State the class of the molecule shown: O=C(CBr)c1cc(-c2ccc(Cl)cc2)nc2ccccc12
[out] band C

[in] State the class of the molecule shown: CN(C)CCCN=c1c2ccccc2n(O)c2ccccc12
[out] band A

[in] State the class of the molecule shown: O=C1/C(=C/c2ccc(Cl)cc2)CSC/C1=C\c1ccc(Cl)cc1
[out] band A

[in] State the class of the molecule shown: O=C(O)C(Br)C(Br)C(=O)Nc1ccc(Cl)c(Cl)c1 (centres undefined)
[out] band C

[in] State the class of the molecule shown: CC(/C=C/c1ccc(Cl)cc1)=N\NC(N)=S
[out] band B

[in] State the class of the molecule shown: O=S(=O)(Nc1ccc2c3c(cccc13)C=C2)c1ccccc1
[out] band B

[in] State the class of the molecule shown: Cc1cc(N(CCCCl)CCCCl)ccc1C=Nc1cccc(Cl)c1
[out] band B

[in] State the class of the molecule shown: COc1cc(Cc2n[nH]c(=S)n2-c2ccccc2)c(S(N)(=O)=O)cc1OC
[out] band A

[in] State the class of the molecule shown: CC1=C/C(=C\c2ccc([N+](=O)[O-])o2)C(=O)O1
[out] band C

[in] State the class of the molecule shown: CCCCCCC(/C=C/c1c(Cl)cccc1Cl)=N\O
[out] band C

[in] State the class of the molecule shown: CCNc1nc(C(F)(F)F)nc2nc[nH]c12
[out] band A

Data origin, for the record: PubChem BioAssay (NCI)
